tested on: DR2w2b; set-up: species or system human; conditions: read-out: Binding Activity DR2wB2, IC50

{"COMPOUND": "CC(C)C[C@H](NC(=O)[C@@H](NC(=O)[C@H](CCCCN)NC(=O)[C@H](C)NC(=O)[C@H](C)NC(=O)[C@@H](NC(=O)[C@H](CC1CCCCC1)NC(=O)[C@H](CCCCN)NC(=O)[C@@H](C)N)C(C)C)[C@@H](C)O)C(=O)N[C@@H](CCCCN)C(=O)N[C@@H](C)C(=O)N[C@@H](C)C(=O)N[C@H](C)C(N)=O [965.14]", "MEASUREMENT UNIT": "nM", "IC50": 8}
{"COMPOUND": "CC(C)C[C@H](NC(=O)[C@@H](NC(=O)[C@H](Cc1ccc(O)cc1)NC(=O)[C@H](C)NC(=O)[C@H](C)NC(=O)[C@@H](NC(=O)[C@H](CC1CCCCC1)NC(=O)[C@H](CCCCN)NC(=O)[C@@H](C)N)C(C)C)[C@@H](C)O)C(=O)N[C@@H](CCCCN)C(=O)N[C@@H](C)C(=O)N[C@@H](C)C(=O)N[C@H](C)C(N)=O [965.09]", "MEASUREMENT UNIT": "nM", "IC50": 7.4}
{"COMPOUND": "CC(C)C[C@H](NC(=O)[C@@H](NC(=O)[C@H](CC(N)=O)NC(=O)[C@H](C)NC(=O)[C@H](C)NC(=O)[C@@H](NC(=O)[C@H](CC1CCCCC1)NC(=O)[C@H](CCCCN)NC(=O)[C@@H](C)N)C(C)C)[C@@H](C)O)C(=O)N[C@@H](CCCCN)C(=O)N[C@@H](C)C(=O)N[C@@H](C)C(=O)N[C@H](C)C(N)=O [965.08]", "MEASUREMENT UNIT": "nM", "IC50": 3.8}

* * *

tested on: PBMC from normal individuals; assay: In vitro T cell proliferative responses of human PBMC ([3H]thymidine incorporation); assay type: cell-based; conditions: 3rd Stimulation, average of 5 donors
In plain terms, low AVERAGE S.I., meaning strictly below 2, gives yes, and everything else gives no.

{"SUBSTANCE SMILES": "CC(C)C[C@H](NC(=O)[C@@H](NC(=O)[C@H](Cc1c[nH]c2ccccc12)NC(=O)[C@H](C)NC(=O)[C@H](C)NC(=O)[C@@H](NC(=O)[C@H](CC1CCCCC1)NC(=O)[C@H](CCCCN)NC(=O)[C@H](C)N)C(C)C)[C@@H](C)O)C(=O)N[C@@H](CCCCN)C(=O)N[C@@H](C)C(=O)N[C@@H](C)C(=O)N[C@@H](C)C(N)=O", "CATEGORY LABEL": "no"}
{"SUBSTANCE SMILES": "CC(C)C[C@H](NC(=O)[C@@H](NC(=O)[C@H](C)NC(=O)[C@H](C)NC(=O)[C@H](C)NC(=O)[C@@H](NC(=O)[C@H](CC1CCCCC1)NC(=O)[C@H](CCCCN)NC(=O)[C@@H](C)N)C(C)C)[C@@H](C)O)C(=O)N[C@@H](CCCCN)C(=O)N[C@@H](C)C(=O)N[C@@H](C)C(=O)N[C@H](C)C(N)=O", "CATEGORY LABEL": "yes"}
{"SUBSTANCE SMILES": "CC(C)C[C@H](NC(=O)[C@@H](NC(=O)[C@H](Cc1c[nH]cn1)NC(=O)[C@H](C)NC(=O)[C@H](C)NC(=O)[C@@H](NC(=O)[C@H](CC1CCCCC1)NC(=O)[C@H](CCCCN)NC(=O)[C@@H](C)N)C(C)C)[C@@H](C)O)C(=O)N[C@@H](CCCCN)C(=O)N[C@@H](C)C(=O)N[C@@H](C)C(=O)N[C@H](C)C(N)=O", "CATEGORY LABEL": "no"}
{"SUBSTANCE SMILES": "CC(C)C[C@H](NC(=O)[C@@H](NC(=O)[C@H](Cc1ccc(O)cc1)NC(=O)[C@H](C)NC(=O)[C@H](C)NC(=O)[C@@H](NC(=O)[C@H](CC1CCCCC1)NC(=O)[C@H](CCCCN)NC(=O)[C@@H](C)N)C(C)C)[C@@H](C)O)C(=O)N[C@@H](CCCCN)C(=O)N[C@@H](C)C(=O)N[C@@H](C)C(=O)N[C@H](C)C(N)=O", "CATEGORY LABEL": "no"}
{"SUBSTANCE SMILES": "CC(C)C[C@H](NC(=O)[C@@H](NC(=O)[C@H](Cc1c[nH]c2ccccc12)NC(=O)[C@H](C)NC(=O)[C@H](C)NC(=O)[C@@H](NC(=O)[C@H](CC1CCCCC1)NC(=O)[C@H](CCCCN)NC(=O)[C@@H](C)N)C(C)C)[C@@H](C)O)C(=O)N[C@@H](CCCCN)C(=O)N[C@@H](C)C(=O)N[C@@H](C)C(=O)N[C@H](C)C(N)=O", "CATEGORY LABEL": "no"}

* * *

X349 (Δmax cpm) values for the compounds below.
test system: PBMC from normal individuals; assay: In vitro T cell proliferative responses of human PBMC ([3H]thymidine incorporation); type: cell-based; settings: 3rd Stimulation, donor X349
MEASUREMENT NAME: X349 (Δmax cpm)

{"COMPOUND": "CC(C)C[C@H](NC(=O)[C@@H](NC(=O)[C@H](Cc1c[nH]cn1)NC(=O)[C@H](C)NC(=O)[C@H](C)NC(=O)[C@@H](NC(=O)[C@H](CC1CCCCC1)NC(=O)[C@H](CCCCN)NC(=O)[C@@H](C)N)C(C)C)[C@@H](C)O)C(=O)N[C@@H](CCCCN)C(=O)N[C@@H](C)C(=O)N[C@@H](C)C(=O)N[C@H](C)C(N)=O [965.15]", "MEASUREMENT NAME": "X349 (Δmax cpm)", "RECORDED MEASUREMENT": 20653}
{"COMPOUND": "CC(C)C[C@H](NC(=O)[C@@H](NC(=O)[C@H](Cc1c[nH]c2ccccc12)NC(=O)[C@H](C)NC(=O)[C@H](C)NC(=O)[C@@H](NC(=O)[C@H](CC1CCCCC1)NC(=O)[C@H](CCCCN)NC(=O)[C@H](C)N)C(C)C)[C@@H](C)O)C(=O)N[C@@H](CCCCN)C(=O)N[C@@H](C)C(=O)N[C@@H](C)C(=O)N[C@@H](C)C(N)=O [965.17]", "MEASUREMENT NAME": "X349 (Δmax cpm)", "RECORDED MEASUREMENT": 31983}
{"COMPOUND": "CC(C)C[C@H](NC(=O)[C@@H](NC(=O)[C@H](Cc1ccc(O)cc1)NC(=O)[C@H](C)NC(=O)[C@H](C)NC(=O)[C@@H](NC(=O)[C@H](CC1CCCCC1)NC(=O)[C@H](CCCCN)NC(=O)[C@@H](C)N)C(C)C)[C@@H](C)O)C(=O)N[C@@H](CCCCN)C(=O)N[C@@H](C)C(=O)N[C@@H](C)C(=O)N[C@H](C)C(N)=O [965.09]", "MEASUREMENT NAME": "X349 (Δmax cpm)", "RECORDED MEASUREMENT": 31811}

* * *

system: PBMC from normal individuals; test: In vitro T cell proliferative responses of human PBMC ([3H]thymidine incorporation); type: cell-based; settings: 2nd Stimulation, average of 5 donors
AVERAGE ΔMAX CPM values for the compounds below.
MEASUREMENT NAME: AVERAGE ΔMAX CPM (cpm)

{"SUBSTANCE SMILES": "CC(C)C[C@H](NC(=O)[C@@H](NC(=O)[C@H](Cc1c[nH]c2ccccc12)NC(=O)[C@H](C)NC(=O)[C@H](C)NC(=O)[C@@H](NC(=O)[C@H](CC1CCCCC1)NC(=O)[C@H](CCCCN)NC(=O)[C@@H](C)N)C(C)C)[C@@H](C)O)C(=O)N[C@@H](CCCCN)C(=O)N[C@@H](C)C(=O)N[C@@H](C)C(=O)N[C@H](C)C(N)=O", "MEASUREMENT TARGET": "PBMC from normal individuals", "RECORDED MEASUREMENT": 25767}
{"SUBSTANCE SMILES": "CC(C)C[C@H](NC(=O)[C@@H](NC(=O)[C@H](Cc1c[nH]c2ccccc12)NC(=O)[C@H](C)NC(=O)[C@H](C)NC(=O)[C@@H](NC(=O)[C@H](CC1CCCCC1)NC(=O)[C@H](CCCCN)NC(=O)[C@H](C)N)C(C)C)[C@@H](C)O)C(=O)N[C@@H](CCCCN)C(=O)N[C@@H](C)C(=O)N[C@@H](C)C(=O)N[C@@H](C)C(N)=O", "MEASUREMENT TARGET": "PBMC from normal individuals", "RECORDED MEASUREMENT": 12738}
{"SUBSTANCE SMILES": "CC(C)C[C@H](NC(=O)[C@@H](NC(=O)[C@H](Cc1c[nH]cn1)NC(=O)[C@H](C)NC(=O)[C@H](C)NC(=O)[C@@H](NC(=O)[C@H](CC1CCCCC1)NC(=O)[C@H](CCCCN)NC(=O)[C@@H](C)N)C(C)C)[C@@H](C)O)C(=O)N[C@@H](CCCCN)C(=O)N[C@@H](C)C(=O)N[C@@H](C)C(=O)N[C@H](C)C(N)=O", "MEASUREMENT TARGET": "PBMC from normal individuals", "RECORDED MEASUREMENT": 7920}
